Attribution: patent US20260356856A1

experimental_target: KRas-mediated phosphorylation of ERK in MKN1 cells (Homo sapiens, UniProt P01116)
Construct: pERK HTRF read-out
Sequence (P01116 1-188 isoform P01116-2): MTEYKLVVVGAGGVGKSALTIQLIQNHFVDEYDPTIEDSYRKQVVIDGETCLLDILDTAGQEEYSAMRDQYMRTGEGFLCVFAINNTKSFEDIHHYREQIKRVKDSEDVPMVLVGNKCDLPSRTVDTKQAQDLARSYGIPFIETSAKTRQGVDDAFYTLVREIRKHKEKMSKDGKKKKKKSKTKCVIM
protocol: Inhibition of KRas-mediated phosphorylation of ERK (HTRF), MKN1 cells
Type: cell-based
condition: MKN1 cells (KRas WT); HTRF pERK; 3 h incubation
We begin with a simple list: items and their reported IC50.
Give the number; nM is assumed, so skip it.

# annotated cases, reported IC50 shown
Cc1ccn(C(=O)C2CCCN(c3nc(OC[C@@]45CCCN4C[C@H](F)C5)nc4c(F)c(-c5c(C#N)c(N)cc(C)c5C(F)(F)F)c(Cl)cc34)CC2)n1 (some centres unmarked) [Example 248] :: 2920
CC(C)(C)c1ccn(C(=O)C2CCCN(c3nc(OC[C@@]45CCCN4C[C@H](F)C5)nc4c(F)c(-c5ccc(F)c6sc(N)c(C#N)c56)c(Cl)cc34)CC2)n1 (some centres unmarked) [Example 220] :: 258
N#Cc1c(N)sc2c(F)ccc(-c3c(Cl)cc4c(N5CCCC(C(=O)n6cccn6)CC5)nc(OC[C@@]56CCCN5C[C@H](F)C6)nc4c3F)c12 (some centres unmarked) [Example 131] :: 258
Cc1ccn(C(=O)C23CCC(CN(c4nc(OC[C@@]56CCCN5C[C@H](F)C6)nc5c(F)c(-c6ccc(F)c7sc(N)c(C#N)c67)c(Cl)cc45)C2)C3)n1 (some centres unmarked) [Example 183] :: 192

Read the next record carefully.
Qu. Fill in IC50 for record CCc1c(F)ccc2cc(O)cc(-c3ncc4c(NC[C@@H]5C[C@H]5C(=O)n5ccc(C)n5)nc(OC[C@@]56CCCN5C[C@H](F)C6)nc4c3F)c12 [Example 112]
Ans. 80

###

experimental_target: KRas G12C (Homo sapiens, UniProt P01116, G12C)
Construct: Biotinylated KRas (corresponding to amino acids 1-169, produced at Accelegan Inc.); biotin (biotinylated); purchased Accelegan Inc
Sequence (P01116 1-169 isoform P01116-2 G12C): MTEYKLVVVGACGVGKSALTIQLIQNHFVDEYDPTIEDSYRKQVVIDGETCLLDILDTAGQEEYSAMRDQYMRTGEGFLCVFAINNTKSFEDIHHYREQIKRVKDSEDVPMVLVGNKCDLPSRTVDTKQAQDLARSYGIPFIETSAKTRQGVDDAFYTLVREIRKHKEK
protocol: KRas binding assay, TR-FRET displacement of Cy5 labelled tracer
condition: 60-minute incubation at room temperature, 1% DMSO, pH 7.5
Overview of recorded IC50 for various compounds
Give the figure together with its unit, number first.

Look over these answered cases.
COc1cccc(OC(=O)C2CCN(c3nc(OC[C@@]45CCCN4C[C@H](F)C5)nc4c(F)c(-c5ccc(F)c6sc(N)c(C#N)c56)c(Cl)cc34)CC2)c1 :: 9 nM
CCc1c(F)ccc2cc(O)cc(-c3ncc4c(N5CCC6CC6(C(=O)n6ccc(C)n6)CC5)nc(OC[C@@]56CCCN5C[C@H](F)C6)nc4c3F)c12 (stereo partly drawn) :: 141 nM

Let us examine a further case.
Qu. Consider the compound CCc1c(F)ccc2cc(O)cc(-c3ncc4c(NCC56CC(C(=O)n7ccc(C)n7)(C5)C6)nc(OC[C@@]56CCCN5C[C@H](F)C6)nc4c3F)c12 and give its recorded IC50.
Ans. 3 nM

###

experimental_target: KRas-mediated phosphorylation of ERK in MKN1 cells (Homo sapiens, UniProt P01116)
Construct: pERK HTRF read-out
protocol: Inhibition of KRas-mediated phosphorylation of ERK (HTRF), MKN1 cells
Format: cell-based
condition: MKN1 cells (KRas WT); HTRF pERK; 3 h incubation
IC50 values for the compounds below.
Write the numeric value and follow it with the unit.

Answered cases to consult:
CC(=O)N(C)C(=O)C1CCN(c2nc(OC[C@@]34CCCN3C[C@H](F)C4)nc3c(F)c(-c4ccc(F)c5sc(N)c(C#N)c45)c(Cl)cc23)CC1 [Example 254] :: 18 nM
CCc1c(F)ccc2cc(O)cc(-c3ncc4c(N5CC[C@H]6[C@@H](C5)[C@H]6C(=O)n5ccc(C)n5)nc(OC[C@@]56CCCN5C[C@H](F)C6)nc4c3F)c12 [Example 156] :: 2090 nM
N#Cc1c(N)sc2c(F)ccc(-c3c(Cl)cc4c(N5CCCC(C(=O)n6ccc(C7CC7)n6)CC5)nc(OC[C@@]56CCCN5C[C@H](F)C6)nc4c3F)c12 (some centres unmarked) :: 199 nM
CCc1c(F)ccc2cc(O)cc(-c3ncc4c(N(C)CCCS(=O)(=O)n5ccnc5)nc(OC[C@@]56CCCN5C[C@H](F)C6)nc4c3F)c12 :: 1250 nM

Now consider a different compound.
Qu. Consider the compound CCc1c(F)ccc2cc(O)cc(-c3ncc4c(N5C[C@H]6C[C@H](C(=O)n7ccc(C)n7)[C@H]6C5)nc(OC[C@@]56CCCN5C[C@H](F)C6)nc4c3F)c12 . State its measured IC50.
Ans. 7280 nM
